- System: N27 (rat dopaminergic neuronal cells)
- Assay: MTT cell proliferation assay, N27 cells
- Assay type: cell-based
- Condition details: 72 h, non-tumoral cells, read-out: Estimated IC50, N27
1 (yes) if IC50 is below 20 µM. 0 (no) if not; exact matches included in 0 (no).

>  <Compound>
CC12CCC3C(CC4OC45CC(O)CCC35C)C1CC(=Cc1ccc([N+](=O)[O-])cc1)C2=O (stereo not drawn)

>  <Measured target>
N27 (rat dopaminergic neuronal cells)

>  <Cat>
0 (no)

$$$$
>  <Compound>
C[C@]12CC[C@H]3[C@@H](C[C@@H]4O[C@@]45CC(O)CC[C@]35C)[C@@H]1C/C(=C\c1cccc(F)c1F)C2=O (stereo partly drawn)

>  <Measured target>
N27 (rat dopaminergic neuronal cells)

>  <Cat>
1 (yes)

$$$$
>  <Compound>
Cc1ccc(C=C2CC3C4CC5OC56CC(O)CCC6(C)C4CCC3(C)C2=O)cc1 (stereo not drawn)

>  <Measured target>
N27 (rat dopaminergic neuronal cells)

>  <Cat>
1 (yes)

$$$$
>  <Compound>
Cc1ccc(/C=C2\C[C@H]3[C@@H]4C[C@@H]5O[C@@]56CC(O)CC[C@]6(C)[C@H]4CC[C@]3(C)C2=O)o1 (stereo partly drawn)

>  <Measured target>
N27 (rat dopaminergic neuronal cells)

>  <Cat>
1 (yes)

$$$$
>  <Compound>
CC12CCC3C(CC4OC45CC(O)CCC35C)C1CC(=Cc1ccc(Br)cc1)C2=O (stereo not drawn)

>  <Measured target>
N27 (rat dopaminergic neuronal cells)

>  <Cat>
1 (yes)

$$$$
>  <Compound>
COc1ccc(C=C2CC3C4CC5OC56CC(O)CCC6(C)C4CCC3(C)C2=O)cc1 (stereo not drawn)

>  <Measured target>
N27 (rat dopaminergic neuronal cells)

>  <Cat>
0 (no)

$$$$
>  <Compound>
C[C@]12CC[C@H]3[C@@H](C[C@@H]4O[C@@]45C[C@@H](O)CC[C@]35C)[C@@H]1C/C(=C\c1ccco1)C2=O

>  <Measured target>
N27 (rat dopaminergic neuronal cells)

>  <Cat>
0 (no)

$$$$
>  <Compound>
CC12CCC3C(CC4OC45CC(O)CCC35C)C1CC(=Cc1ccc(Cl)o1)C2=O (stereo not drawn)

>  <Measured target>
N27 (rat dopaminergic neuronal cells)

>  <Cat>
0 (no)

$$$$
>  <Compound>
CC12CCC3C(CC4OC45CC(O)CCC35C)C1CC(=Cc1cccs1)C2=O (stereo not drawn)

>  <Measured target>
N27 (rat dopaminergic neuronal cells)

>  <Cat>
1 (yes)

$$$$

###

- Test system: MCF-7 cells (estrogen-responsive breast cancer cells)
- Assay: MTT cell proliferation assay, MCF-7 cells
- Assay type: cell-based
- Condition details: Homo sapiens, MCF7; MTT, 72 h, tumoral cells; read-out: Estimated IC50, MCF-7

>  <Compound>
O=c1[nH]cc(F)c(=O)[nH]1 [Compound 5-FU, 5-Fluorouracil, reference compound]

>  <IC50 (µM)>
6.3

$$$$

###

- Test system: PC-3 cells (androgen-independent prostatic cancer)
- Assay: MTT cell proliferation assay, PC-3 cells
- Assay type: cell-based
- Condition details: Homo sapiens, PC-3; MTT, 72 h, tumoral cells; read-out: Estimated IC50, PC-3
pIC50: −log10 of the molar value.
Parameter: pIC50

>  <Compound>
O=c1[nH]cc(F)c(=O)[nH]1 [Compound 5-FU, 5-Fluorouracil, reference compound]

>  <Value measured>
4.67

$$$$

###

- Test system: PNT1A (normal prostate cells)
- Assay: MTT cell proliferation assay, PNT1A cells
- Type: cell-based
- Condition details: 72 h, non-tumoral cells, read-out: Estimated IC50, PNT1A

>  <Molecule>
CC12CCC3C(CC4OC45CC(O)CCC35C)C1CC(=Cc1ccc(Br)cc1)C2=O (stereo not drawn)

>  <Measured target>
PNT1A (normal prostate cells)

>  <Reported relation>
=

>  <IC50 (µM)>
15.3

$$$$
>  <Molecule>
C[C@]12CC[C@H]3[C@@H](C[C@@H]4O[C@@]45CC(O)CC[C@]35C)[C@@H]1C/C(=C\c1cccc(F)c1F)C2=O (stereo partly drawn)

>  <Measured target>
PNT1A (normal prostate cells)

>  <Reported relation>
=

>  <IC50 (µM)>
56.5

$$$$
>  <Molecule>
CC12CCC3C(CC4OC45CC(O)CCC35C)C1CC(=Cc1cccs1)C2=O (stereo not drawn)

>  <Measured target>
PNT1A (normal prostate cells)

>  <Reported relation>
=

>  <IC50 (µM)>
29.6

$$$$
>  <Molecule>
Cc1ccc(C=C2CC3C4CC5OC56CC(O)CCC6(C)C4CCC3(C)C2=O)cc1 (stereo not drawn)

>  <Measured target>
PNT1A (normal prostate cells)

>  <Reported relation>
=

>  <IC50 (µM)>
13.3

$$$$
>  <Molecule>
C[C@]12CC[C@H]3[C@@H](C[C@@H]4O[C@@]45C[C@@H](O)CC[C@]35C)[C@@H]1C/C(=C\c1ccco1)C2=O

>  <Measured target>
PNT1A (normal prostate cells)

>  <Reported relation>
=

>  <IC50 (µM)>
56.6

$$$$
>  <Molecule>
COc1ccc(C=C2CC3C4CC5OC56CC(O)CCC6(C)C4CCC3(C)C2=O)cc1 (stereo not drawn)

>  <Measured target>
PNT1A (normal prostate cells)

>  <Reported relation>
=

>  <IC50 (µM)>
54.5

$$$$
>  <Molecule>
CC12CCC3C(CC4OC45CC(O)CCC35C)C1CC(=Cc1ccc(Cl)o1)C2=O (stereo not drawn)

>  <Measured target>
PNT1A (normal prostate cells)

>  <Reported relation>
=

>  <IC50 (µM)>
19.5

$$$$
>  <Molecule>
Cc1ccc(/C=C2\C[C@H]3[C@@H]4C[C@@H]5O[C@@]56CC(O)CC[C@]6(C)[C@H]4CC[C@]3(C)C2=O)o1 (stereo partly drawn)

>  <Measured target>
PNT1A (normal prostate cells)

>  <Reported relation>
=

>  <IC50 (µM)>
46.3

$$$$
>  <Molecule>
CC12CCC3C(CC4OC45CC(O)CCC35C)C1CC(=Cc1ccc([N+](=O)[O-])cc1)C2=O (stereo not drawn)

>  <Measured target>
PNT1A (normal prostate cells)

>  <Reported relation>
>

>  <IC50 (µM)>
100

$$$$
